biological target: MTHFD2 recombinant human enzyme (Homo sapiens, UniProt P13995); experiment: MTHFD2 inhibition assay (NAD(P)H-Glo luminescence)
Sequence (P13995 36-350): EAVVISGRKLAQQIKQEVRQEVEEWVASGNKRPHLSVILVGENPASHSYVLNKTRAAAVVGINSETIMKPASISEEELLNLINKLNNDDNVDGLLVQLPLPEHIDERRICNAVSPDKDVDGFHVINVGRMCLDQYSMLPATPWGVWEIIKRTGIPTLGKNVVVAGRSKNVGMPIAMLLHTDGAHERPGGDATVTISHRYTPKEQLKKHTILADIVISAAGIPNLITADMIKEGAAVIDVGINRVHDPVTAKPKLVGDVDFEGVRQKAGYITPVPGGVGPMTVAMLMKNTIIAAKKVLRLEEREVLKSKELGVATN
pIC50: −log10 of the molar value.
Reported property: pIC50

These recorded examples may help you get a feel for the data.
| Compound | pIC50 |
| --- | --- |
| COC[C@H]1CN(c2cc(Cl)c3c4c(c(=O)oc3c2C)CN(C(=O)c2cc(N(C)C)c(C(=O)NS(=O)(=O)N3CC5(CCC5)C3)cc2F)CC4)CCN1C [Example 318] | 8.00 to 9.00 |
| [2H]C([2H])([2H])Oc1cc(C(=O)N2CCc3c(c(=O)oc4c(C)c(N5CCN(C)[C@@H](COC)C5)cc(C)c34)C2)c(Cl)cc1C(=O)NS(=O)(=O)N1CCCC1 [Example 328] | 7.00 to 8.00 |
| COC[C@H]1CN(c2cc(C)c3c4c(c(=O)oc3c2C)CN(C(=O)c2ccc(C(=O)NS(=O)(=O)N(C)C)c(N3CC5CC5C3)c2F)CC4)CCN1C (some centres unmarked) [Example 72] | 8.00 to 9.00 |

Exercise: # query: pIC50 of entry COC[C@H]1CN(c2cc(C)c3c4c(c(=O)oc3c2C)CN(C(=O)c2cc(OC(C)C)c(C(=O)NS(=O)(=O)N3CCCC3)c(C(F)(F)F)c2)CC4)CCN1C [Example 161]
Key: 7.00 to 8.00

Exercise: Would you kindly repeat that for COC[C@H]1CN(c2cc(C)c3c4c(c(=O)oc3c2C)CN(C(=O)c2cc3c(c(C(=O)NS(=O)(=O)N5CCCC5)c2)OC2(CCC2)O3)CC4)CCN1C [Example 167] ?
Key: 6.00 to 7.00

###

Listed compounds paired with reported pIC50
target: MTHFD2 recombinant human enzyme (Homo sapiens, UniProt P13995); assay: MTHFD2 inhibition assay (NAD(P)H-Glo luminescence)
pIC50: −log10 of the molar value.

| Compound | Value |
| --- | --- |
| COC[C@H]1CN(c2cc(Cl)c3c4c(c(=O)oc3c2C)CN(C(=O)c2cc(N(C)C)c(C(=O)NS(=O)(=O)N(C)C)cc2F)CC4)CCN1C [Example 260] | 8.00 to 9.00 |
| COC[C@H]1CN(c2cc(C)c3c4c(c(=O)oc3c2C)CN(C(=O)c2ccc(C(=O)NS(=O)(=O)C3(C)CC3)c(OC3CCC3)c2F)CC4)CCN1C [Example 41] | 8.00 to 9.00 |
| COC[C@H]1CN(c2cc(C)c3c4c(c(=O)oc3c2C)CN(C(=O)c2ccc(C(=O)NS(=O)(=O)N(C)C)c(N3CCC(C)(C)C3)c2)CC4)CCN1C [Example 88] | 8.00 to 9.00 |
| COC[C@H]1CN(c2cc(C)c3c4c(c(=O)oc3c2C)CN(C(=O)c2ccc(C(=O)NS(=O)(=O)N(C)C)c(N3CCCC(F)(F)C3)c2F)CC4)CCN1C [Example 78] | 8.00 to 9.00 |

Exercise: # query: pIC50 of entry COC[C@H]1CN(c2ccc3c4c(c(=O)oc3c2C)CN(C(=O)c2ccc(C(=O)NS(=O)(=O)N(C)C)c(OC3C[C@@H]5C[C@@H]5C3)c2)CC4)CCN1C (mixture of isomers) [Example 113]
Key: 6.00 to 7.00
